cell count for assorted compounds
Tested on: Jurkat
METHOD DESCRIPTION: cell count relative to DMSO control (fraction of control); higher = more cells (less growth inhibition)
RUN PARAMETERS: 48 h
Counter-ions that a name gives are not always drawn.

Reference set, count: 10
COMPOUND: CN(C)CC/C=C1/c2ccccc2COc2ccc(CC(=O)O)cc21 [Olopatadine] (concentration: 25 µM)
cell count: 0.929
--
COMPOUND: NCCS [Cysteamine·HCl] (concentration: 25 µM)
cell count: 0.513
--
COMPOUND: C=C(c1ccc(C(=O)O)cc1)c1cc2c(cc1C)C(C)(C)CCC2(C)C [Bexarotene] (concentration: 2.5 µM)
cell count: 0.955
--
COMPOUND: CN(C)CCC=C1c2ccccc2CCc2ccccc21 [Amitriptyline·HCl] (concentration: 25 µM)
cell count: 0.798
--
COMPOUND: COc1cccc2c1C(=O)c1c(O)c3c(c(O)c1C2=O)C[C@@](O)(C(=O)CO)C[C@@H]3O[C@H]1C[C@H](N)[C@@H](O)[C@H](C)O1 [Epirubicin·HCl] (concentration: 250 nM)
cell count: 0.206
--
COMPOUND: O=C(O)[C@H]1/C(=C/CO)O[C@@H]2CC(=O)N21 [Clavulanate Potassium] (concentration: 25 µM)
cell count: 0.787
--
COMPOUND: C[N+](C)(C)C[C@H](O)CC(=O)[O-] [Levocarnitine] (concentration: 25 µM)
cell count: 1.01
--
COMPOUND: COc1cc([C@@H]2c3cc4c(cc3[C@@H](O[C@@H]3O[C@@H]5CO[C@@H](C)O[C@H]5[C@H](O)[C@H]3O)[C@H]3COC(=O)[C@H]23)OCO4)cc(OC)c1O [Etoposide] (concentration: 250 nM)
cell count: 0.243
--
COMPOUND: Cc1ccnc2c1NC(=O)c1cccnc1N2C1CC1 [Nevirapine] (concentration: 25 µM)
cell count: 0.476
--
COMPOUND: CNCCCC12CCC(c3ccccc31)c1ccccc12 [Maprotiline·HCl] (concentration: 2.5 µM)
cell count: 0.788

input: Quick check: cell count of CN(C)CC[C@@H](c1ccc(Cl)cc1)c1ccccn1 [Dexchlorpheniramine Maleate] (concentration: 25 µM) ?
output: 0.526

input: Quick check: cell count of CC(CCc1ccccc1)NCC(O)c1ccc(O)c(C(N)=O)c1 (stereo not drawn) [Labetalol·HCl] (concentration: 25 µM) ?
output: 0.821

input: Quick check: cell count of COc1cc([C@@H]2c3cc4c(cc3[C@@H](O[C@@H]3O[C@@H]5CO[C@@H](c6cccs6)O[C@H]5[C@H](O)[C@H]3O)[C@H]3COC(=O)[C@H]23)OCO4)cc(OC)c1O [Teniposide] (concentration: 25 nM) ?
output: 0.478

----------
System: Jurkat
METHOD DESCRIPTION: mean cell size (FSC-A) relative to DMSO control (fraction of control); higher = larger cells
RUN PARAMETERS: 48 h
Counter-ions that a name gives are not always drawn.
mean cell size for assorted compounds
I only need the number, thanks.

COMPOUND: Clc1ccc(CSC(Cn2ccnc2)c2ccc(Cl)cc2Cl)cc1 (stereo not drawn) [Sulconazole Nitrate] (concentration: 25 µM)
mean cell size: 0.953
--
COMPOUND: NS(=O)(=O)c1cc(C2(O)NC(=O)c3ccccc32)ccc1Cl (stereo not drawn) [Chlorthalidone] (concentration: 25 µM)
mean cell size: 1.03
--
COMPOUND: COC(=O)C1=C(C)NC(C)=C(C(=O)OCC(C)C)C1c1ccccc1[N+](=O)[O-] (stereo not drawn) [Nisoldipine] (concentration: 25 µM)
mean cell size: 1.09
--
COMPOUND: CC(=O)Nc1c(I)c(NC(C)=O)c(I)c(C(=O)O)c1I [Diatrizoate Meglumine] (concentration: 25 µM)
mean cell size: 0.99
--
COMPOUND: CC(=O)[C@]1(O)Cc2c(O)c3c(c(O)c2[C@@H](O[C@H]2C[C@H](N)[C@H](O)[C@H](C)O2)C1)C(=O)c1ccccc1C3=O [Idarubicin·HCl] (concentration: 25 nM)
mean cell size: 1.01
--
COMPOUND: Cc1ccccc1C(=O)Nc1ccc(C(=O)N2CCCC(O)c3cc(Cl)ccc32)c(C)c1 (stereo not drawn) [Tolvaptan] (concentration: 25 µM)
mean cell size: 0.951
--
COMPOUND: C=C1/C(=C\C=C2/CCC[C@]3(C)[C@@H]([C@H](C)/C=C/[C@@H](O)C4CC4)CC[C@@H]23)C[C@@H](O)C[C@@H]1O [Calcipotriene] (concentration: 25 µM)
mean cell size: 0.933
--
COMPOUND: NCc1ccc(S(N)(=O)=O)cc1 [Mafenide·HCl] (concentration: 25 µM)
mean cell size: 0.92
--
COMPOUND: Cc1cccc(C)c1OCC(=O)N[C@@H](Cc1ccccc1)[C@@H](O)C[C@H](Cc1ccccc1)NC(=O)[C@H](C(C)C)N1CCCNC1=O [Lopinavir] (concentration: 25 µM)
mean cell size: 0.855
--
COMPOUND: OC(CCN1CCCCC1)(c1ccccc1)C1CCCCC1 (stereo not drawn) [Trihexyphenidyl·HCl] (concentration: 25 µM)
mean cell size: 1.04

input: Quick check: mean cell size of CN1C(C(=O)Nc2ccccn2)=C(O)c2ccccc2S1(=O)=O [Piroxicam] (concentration: 25 µM) ?
output: 0.96

input: Quick check: mean cell size of CCCCS(=O)(=O)N[C@@H](Cc1ccc(OCCCCC2CCNCC2)cc1)C(=O)O [Tirofiban·HCl] (concentration: 25 µM) ?
output: 0.937

input: Quick check: mean cell size of CC1(C)O[C@@H]2C[C@H]3[C@@H]4CCC5=CC(=O)CC[C@]5(C)[C@@]4(F)[C@@H](O)C[C@]3(C)[C@]2(C(=O)CCl)O1 [Halcinonide] (concentration: 25 µM) ?
output: 0.914

----------
Tested on: Jurkat
METHOD DESCRIPTION: mean cell size (FSC-A) relative to DMSO control (fraction of control); higher = larger cells
RUN PARAMETERS: 48 h
Structures can show the parent of a compound that is named as a salt.
MEASUREMENT TYPE: mean cell size
I only need the number, thanks.

Reference set, count: 4
MOLECULE: COC(=O)CCc1ccc(OCC(O)CNC(C)C)cc1 (configuration not stated) [Esmolol] (concentration: 25 µM)
mean cell size: 0.928
//
MOLECULE: CC(C)NCC(O)COc1ccc(CC(N)=O)cc1 (racemic) [(±)-Atenolol] (concentration: 25 µM)
mean cell size: 0.836
//
MOLECULE: C[C@H](CCC(=O)O)[C@H]1CC[C@H]2[C@@H]3[C@@H](O)C[C@@H]4C[C@H](O)CC[C@]4(C)[C@H]3CC[C@]12C [Ursodiol] (concentration: 25 µM)
mean cell size: 1.01
//
MOLECULE: Oc1ccc(C2CNCCc3c2cc(O)c(O)c3Cl)cc1 (configuration not stated) [Fenoldopam Mesylate] (concentration: 25 µM)
mean cell size: 0.886

input: Quick check: mean cell size of CNCCCN1c2ccccc2CCc2ccccc21 [Desipramine·HCl] (concentration: 25 µM) ?
output: 0.972

input: Quick check: mean cell size of COCC1=C(C(=O)OC(C)OC(=O)OC(C)C)N2C(=O)[C@@H](NC(=O)/C(=N\OC)c3csc(N)n3)[C@H]2SC1 (some centres not stated) [Cefpodoxime Proxetil] (concentration: 25 µM) ?
output: 0.94

input: Quick check: mean cell size of CCN(CC)C(=S)SSC(=S)N(CC)CC [Disulfiram] (concentration: 25 µM) ?
output: 0.959

----------
System: Jurkat
METHOD DESCRIPTION: cell count relative to DMSO control (fraction of control); higher = more cells (less growth inhibition)
RUN PARAMETERS: 48 h
MEASUREMENT TYPE: cell count

input: Quick check: cell count of Nc1nc2[nH]cnc2c(=S)[nH]1 [Thioguanine (6-Thioguanine)] (concentration: 25 µM) ?
output: 1.09

input: Quick check: cell count of CCCCNC(=O)NS(=O)(=O)c1ccc(C)cc1 [Tolbutamide] (concentration: 25 µM) ?
output: 0.606

input: Quick check: cell count of O=C(O)COCCN1CCN(C(c2ccccc2)c2ccc(Cl)cc2)CC1 (configuration not stated) [Cetirizine 2HCl] (concentration: 25 µM) ?
output: 1.01

input: Quick check: cell count of NC(=O)c1cnccn1 [Pyrazinamide] (concentration: 25 µM) ?
output: 0.808

input: Quick check: cell count of NS(=O)(=O)c1cc2c(cc1Cl)NCNS2(=O)=O [Hydrochlorothiazide] (concentration: 25 µM) ?
output: 0.411

input: Quick check: cell count of C[C@@H](O)[C@H]1C(=O)N2C(C(=O)O)=C(S[C@@H]3CN[C@H](C(=O)N(C)C)C3)[C@H](C)[C@H]12 [Meropenem] (concentration: 25 µM) ?
output: 0.939

input: Quick check: cell count of C[C@@H](O)[C@H]1C(=O)N2C(C(=O)O)=C(SCCNC=N)C[C@H]12 [Imipenem] (concentration: 25 µM) ?
output: 0.344
